- methodNotes: chemical genetic growth profiling, strain panel (AID 1159580);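 note: tested at 20 µM; growth read once vehicle control cultures reached saturation at 30 °C; 1 = growth at the plate median or of vehicle wells; lower values mean less growth of the strain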
- experimentalContext: S. cerevisiae deletion strains, growth OD, locus YMR205C, strain PFK2 (second series)
Hit rate of the full screen: of about 5,500 compounds, about 2,000 (36%) were called active. Roughly 18% stayed inconclusive and do not appear here. Cut-off read from the data, not from the text of the source: active = normalized growth mostly below about 0.91 (no sharp cut-off); inconclusive = no clear call, values can overlap the other calls; inactive = mostly above about 0.92. The list shows a part of the results.
Labels: y = active, n = inactive

- molecule: "CSC(=NNc1ccccc1)NC(=O)c1c(Cl)cccc1Cl"
  assignedClass: "n"
- molecule: "O=C(Nc1ccc(Cl)cc1)O/N=C\\c1ccn(-c2ccccc2)n1"
  assignedClass: "n"
- molecule: "O=C1CSC(c2ccc(C(F)(F)F)cc2)N1c1ccc(C(F)(F)F)cc1 (stereo unspecified)"
  assignedClass: "n"
- molecule: "CS(=O)(=O)c1sc(C(=O)Sc2ccc(Cl)cc2)c2c1C=CCC2"
  assignedClass: "y"
- molecule: "Cc1c(S(=O)(=O)c2ccc(Cl)cc2)csc1C(=O)NNc1cccc(Cl)c1"
  assignedClass: "n"
- molecule: "O=[N+]([O-])c1ccc(-c2csc(Nc3ccncc3)n2)cc1"
  assignedClass: "n"
- molecule: "COc1ccc(CC2CCC(=NOC(=O)c3ccc(C(C)(C)C)cc3)CC2)cc1 (stereo unspecified)"
  assignedClass: "n"
- molecule: "Cc1ccc(N2C(=O)CSC2c2ccc(Cl)c(Cl)c2)cc1Cl (stereo unspecified)"
  assignedClass: "n"
- molecule: "CC(C)(C)C(=O)/C(C#N)=C/c1c(Cl)cccc1Cl"
  assignedClass: "y"
- molecule: "O=S(=O)(Nc1ccc(Oc2ccc(OC(F)(F)F)cc2)cc1)c1cccc(Cl)c1"
  assignedClass: "n"
- molecule: "COc1cc(CC/C(C)=N/O)ccc1OCc1ccc(Cl)cc1Cl"
  assignedClass: "n"
- molecule: "COc1cc(CC/C(C)=N\\O)ccc1OCc1ccc(Cl)c(Cl)c1"
  assignedClass: "n"
- molecule: "N#Cc1ccc(NC(=O)Nc2cccc3ccccc23)cc1"
  assignedClass: "n"
- molecule: "O=C(CCn1c(=O)oc2ccccc21)Sc1ccc(C(F)(F)F)cc1"
  assignedClass: "n"
- molecule: "O=C1/C(=C/c2ccc(C(F)(F)F)cc2)COc2ccccc21"
  assignedClass: "n"
- molecule: "O=C(Nc1cccc2ccccc12)c1ccccc1O"
  assignedClass: "y"
- molecule: "NNC(=O)c1csc(Cc2c(Cl)sc3ccc(Cl)cc23)n1"
  assignedClass: "n"
- molecule: "CC1C/C(=N/Nc2ccc(Br)cc2)c2cc(Cl)ccc2S1 (stereo unspecified)"
  assignedClass: "y"
- molecule: "O=C(CCn1c(=O)oc2ccccc21)Sc1ccc(Cl)cc1Cl"
  assignedClass: "y"
- molecule: "O=C(NNc1ccc(Cl)cc1)c1ccc(F)cc1F"
  assignedClass: "n"
- molecule: "Cc1nn(Cc2nnc(SCc3cccc(C(F)(F)F)c3)o2)c(C)c1Br"
  assignedClass: "n"

----------
- methodNotes: chemical genetic growth profiling, strain panel (AID 1159580);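 note: tested at 20 µM; growth read once vehicle control cultures reached saturation at 30 °C; 1 = growth at the plate median or of vehicle wells; lower values mean less growth of the strain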
- experimentalContext: S. cerevisiae deletion strains, growth OD, locus YDR101C, strain arx1, hits give low values
Out of some 5,500 compounds screened, about 2,000 (36%) were called active. About 18% were inconclusive and are not listed. This is one part of the list.

- compound: "Cc1cc(=O)oc2c(O)c(O)ccc12"
  normalized growth: 1.02
- compound: "O=c1cc(-c2ccccc2)oc2c(O)c(O)ccc12"
  normalized growth: 0.973
- compound: "CCC(=O)Nc1ccc(Cl)c(Cl)c1"
  normalized growth: 0.991
- compound: "O=c1cc(-c2cc(O)c(O)c(O)c2)oc2cc(O)cc(O)c12"
  normalized growth: 1.01
- compound: "O=c1cc(-c2ccccc2)oc2cc(O)cc(O)c12"
  normalized growth: 0.921
- compound: "NS(=O)(=O)c1cc2c(cc1Cl)NC(C1CC3C=CC1C3)NS2(=O)=O (stereo unspecified)"
  normalized growth: 1
